// provenance: the supplement of paper PMC3545927

SYSTEM: furin, P09958;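 note: purified furin at 1:10 enzyme:substrate in 50 mM HEPES pH 7.5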
Sequence (P09958 whole entry): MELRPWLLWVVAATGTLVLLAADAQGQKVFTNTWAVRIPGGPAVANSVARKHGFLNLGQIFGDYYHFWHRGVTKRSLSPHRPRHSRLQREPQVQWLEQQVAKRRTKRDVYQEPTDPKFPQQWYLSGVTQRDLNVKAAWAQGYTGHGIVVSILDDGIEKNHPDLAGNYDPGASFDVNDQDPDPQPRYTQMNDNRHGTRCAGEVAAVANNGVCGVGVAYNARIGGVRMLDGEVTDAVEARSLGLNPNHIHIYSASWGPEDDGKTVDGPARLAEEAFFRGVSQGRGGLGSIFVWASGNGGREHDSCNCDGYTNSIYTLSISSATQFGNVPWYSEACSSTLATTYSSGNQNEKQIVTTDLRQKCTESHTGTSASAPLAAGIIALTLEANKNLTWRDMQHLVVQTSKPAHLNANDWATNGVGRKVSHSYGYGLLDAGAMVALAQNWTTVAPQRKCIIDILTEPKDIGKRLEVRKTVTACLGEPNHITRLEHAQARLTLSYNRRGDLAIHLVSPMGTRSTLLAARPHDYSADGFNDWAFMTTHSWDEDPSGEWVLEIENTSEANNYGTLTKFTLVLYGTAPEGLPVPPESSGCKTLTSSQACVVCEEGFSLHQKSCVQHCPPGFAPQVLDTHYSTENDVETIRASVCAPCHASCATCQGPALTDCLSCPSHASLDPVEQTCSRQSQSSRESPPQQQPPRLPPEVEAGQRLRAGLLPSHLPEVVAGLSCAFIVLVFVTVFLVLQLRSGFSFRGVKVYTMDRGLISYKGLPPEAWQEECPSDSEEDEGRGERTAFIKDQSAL
PROTOCOL: furin cleavage Z-score vs untreated control; higher = more cleavage, active = 3.5 or more, inactive = 1 or less, 8 variable residues between constant flanks
STUDY_CONDITIONS: 7.5 min
The list shows a part of the results. The true hit rate is not given.
OBSERVED_PROPERTY: furin cleavage Z-score

Examples from the recorded data:
CASTPCSIHLAGNASASA [HC2524]	-0.158 (inactive)
CAMEECQQHLAGNASASA [HC39]	1.54
CAREERSWFRAGNASASA [FS-2910]	1.59
CAIGGHYVQMAGNASASA [HC625]	1.06
CATVTESDIRAGNASASA [HC1484]	-1.23 (inactive)

GET /values?readout=furin cleavage Z-score&item= CAHTPCSGSWAGNASASA [HC1835]
-0.934 (inactive)

GET /values?readout=furin cleavage Z-score&item= CATTPCSGMWAGNASASA [HC1906]
0.488 (inactive)
